Assign % Kill, PC3/hPRLR cells to each entry below.
# subject of test: T1, human prolactin receptor (PRLR) (human, UniProt P16471 25-622)
# T1 sequence: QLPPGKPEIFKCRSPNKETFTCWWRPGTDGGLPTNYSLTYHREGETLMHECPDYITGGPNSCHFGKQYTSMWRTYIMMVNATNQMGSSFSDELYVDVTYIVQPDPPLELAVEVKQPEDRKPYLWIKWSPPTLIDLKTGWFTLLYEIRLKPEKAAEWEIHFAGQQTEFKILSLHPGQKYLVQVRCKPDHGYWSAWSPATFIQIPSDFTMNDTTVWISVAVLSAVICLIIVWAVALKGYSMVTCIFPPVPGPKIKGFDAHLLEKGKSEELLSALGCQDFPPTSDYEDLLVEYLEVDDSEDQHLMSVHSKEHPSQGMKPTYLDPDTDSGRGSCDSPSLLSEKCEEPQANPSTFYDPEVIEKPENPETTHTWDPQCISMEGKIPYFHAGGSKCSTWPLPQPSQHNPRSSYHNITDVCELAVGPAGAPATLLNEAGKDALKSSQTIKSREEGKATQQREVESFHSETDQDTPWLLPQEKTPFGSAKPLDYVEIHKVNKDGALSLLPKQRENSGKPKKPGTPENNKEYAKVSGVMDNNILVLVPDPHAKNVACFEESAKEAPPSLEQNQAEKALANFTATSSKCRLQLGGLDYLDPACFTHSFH
# assay text: cell-based or functional assay
Could you give me the number in %? Just the number is fine.

I'd like to know its % Kill, PC3/hPRLR cells. The binder in question is H1H6958N2-DM1 (antibody, human IgG1, V domains shown, DM1 conjugated through SMCC linker; attachment residues not stated) VH: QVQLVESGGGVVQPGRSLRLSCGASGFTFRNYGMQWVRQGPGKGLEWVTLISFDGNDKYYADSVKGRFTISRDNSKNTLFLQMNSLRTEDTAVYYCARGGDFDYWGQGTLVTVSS VL: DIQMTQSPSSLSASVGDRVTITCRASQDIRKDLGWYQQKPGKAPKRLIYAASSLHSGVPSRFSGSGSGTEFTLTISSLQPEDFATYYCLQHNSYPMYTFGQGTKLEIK
79

I'd like to know its % Kill, PC3/hPRLR cells. The binder in question is H1H6958N2-mc-VC-PAB-MMAE (antibody, human IgG1, V domains shown, MMAE conjugated through cleavable mc-vc-PAB linker; attachment residues not stated) VH: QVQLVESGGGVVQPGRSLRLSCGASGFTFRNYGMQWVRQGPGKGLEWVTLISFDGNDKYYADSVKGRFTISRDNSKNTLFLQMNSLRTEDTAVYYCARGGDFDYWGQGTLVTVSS VL: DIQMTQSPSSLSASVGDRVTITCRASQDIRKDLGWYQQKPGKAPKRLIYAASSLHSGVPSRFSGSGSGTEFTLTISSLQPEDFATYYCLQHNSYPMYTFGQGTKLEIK
82

I'd like to know its % Kill, PC3/hPRLR cells. The binder in question is H1H6765P-DM1 (antibody, human IgG1, V domains shown, DM1 conjugated through SMCC linker; attachment residues not stated) VH: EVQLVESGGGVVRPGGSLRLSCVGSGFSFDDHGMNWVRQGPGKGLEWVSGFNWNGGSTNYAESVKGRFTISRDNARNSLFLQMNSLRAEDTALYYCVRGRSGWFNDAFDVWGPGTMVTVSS VL: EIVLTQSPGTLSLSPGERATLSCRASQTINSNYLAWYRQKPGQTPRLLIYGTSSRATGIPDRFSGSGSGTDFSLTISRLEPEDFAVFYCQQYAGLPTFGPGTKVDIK
83
